experiment: in vitro; details: hepatocytes
READOUT NAME: hepatocyte CLint (µL/min/1e6 cells)
I only need the number, in µL/min/1e6 cells, no unit after it.

Reference set, count: 10
MOLECULE | hepatocyte CLint (µL/min/1e6 cells)
CNCc1ccc(-c2[nH]c3cc(F)cc4c3c2CCNC4=O)cc1 | 12
CC1(C)CCC(c2ccc(Cl)cc2)=C(CN2CCN(c3ccc(C(=O)NS(=O)(=O)c4ccc(N[C@H](CCN5CCOCC5)CSc5ccccc5)c(S(=O)(=O)C(F)(F)F)c4)cc3)CC2)C1 | 9.77
C[C@@](C(=O)O[C@H]1C[N+]2(CCCc3cc4ccccc4s3)CCC1CC2)(c1ccccc1)N1CCCCC1 | 65
CCC(NC(=O)Nc1cc(Cl)ccc1Cl)(C(F)(F)F)C(F)(F)F | 22.9
O=C(NCC1(O)CCCCCC1)c1cc(-c2ccccc2C(=O)O)ccc1Cl | 12.5
CC(=O)Nc1ccc2ccn(-c3cc(NC4COC4)n4ncc(C#N)c4n3)c2c1 | 21.9
COc1ccc(C)c(Nc2ncc3ccn(-c4ccccn4)c3n2)c1 | 83.2
Nc1nnc(CCSCCc2nnc(NC(=O)Cc3ccccc3)s2)s1 | 72.4
CCC(=C(c1ccc(O)cc1)c1ccc(OCCN(C)C)cc1)c1ccccc1 | 56.2
CCC(CC)NC(=O)c1cnn(-c2ccccc2)c1NS(=O)(=O)c1ccc(-c2cnco2)cc1 | 52

Task: Please give the measured hepatocyte CLint for this molecule: `CN1CCN(c2ccc(-c3cnc4cccc(-c5cc(F)c(CN6CCOCC6)c(F)c5)c4n3)cc2)CC1`
Result: 14.4

Task: Look up hepatocyte CLint for this molecule: `O=C(CCOCCc1ccccc1)NCCNCCc1ccc(O)c2nc(O)sc12`
Result: 72

Task: Quick one: hepatocyte CLint of `Cc1cn([C@H]2CCCN([C@@H](CC(C)C)c3ccc(C(=O)O)c(Oc4cccc(Cl)c4)c3)C2)c(=O)[nH]c1=O` ?
Result: 9.55

Task: Could you share which hepatocyte CLint value was measured for `Clc1ccc2c(c1)CCc1cccnc1C2=C1CCNCC1` ?
Result: 26.9

Task: // returns reported hepatocyte CLint for input NC(=O)NC(=O)C(Nc1ccc2c(c1)CCC2)c1ccccc1 (stereo not given)
Result: 55

Task: Quick check: hepatocyte CLint of `C[C@@H](O)[C@H]1C(=O)N2C(C(=O)O)=C(SC3CN(C4=NCCS4)C3)[C@H](C)[C@H]12` ?
Result: 4.79

Task: May I ask what hepatocyte CLint has been recorded for `CN(C)CCNc1cc(-c2ccccc2)nc2cc(-c3ccc(F)cc3)nn12` ?
Result: 24

Task: Look up hepatocyte CLint: `COc1cc(-c2ccc(Nc3ccccc3C(=O)O)c(OC)c2)ccc1Nc1ccccc1C(=O)O`
Result: 31.6

---

assay: in vitro; conditions: mouse, plasma
Criterion: fraction unbound at 5 h meeting or surpassing 0.02. Met: Fulfilled. Not met: Not fulfilled.

COMPOUND | GROUP LABEL
COc1ccc(Cl)cc1C1(F)C(=O)Nc2cc(C(F)(F)F)ccc21 (centres undefined) | Not fulfilled

Task: Could you tell me if the measured fraction unbound at 5 h of `CN1C(=N)N[C@](C)(c2cc(-c3cccc(C#N)c3)cs2)CC1=O` reaches 0.02 or more?
Result: Fulfilled

Task: Determine whether measured fraction unbound at 5 h meets or exceeds 0.02 for `c1ccc([C@@H]([C@H](c2ccccc2)N2CCCC2)N2CCCC2)cc1`
Result: Fulfilled

Task: Does `Cc1cc(C)c(S(=O)(=O)NCc2ccncc2)c(C)c1` have a reported fraction unbound at 5 h of at least 0.02?
Result: Fulfilled

Task: Does `O=C(c1c2ccccc2cc2ccccc12)N1CCC(N2CCC[C@@H](C(=O)N3CCOCC3)C2)CC1` have a reported fraction unbound at 5 h of at least 0.02?
Result: Fulfilled

Task: Is fraction unbound at 5 h at least 0.02? Consider `CC(C)Oc1ccc(-c2nc(-c3cccc4c(CCC(=O)O)c[nH]c34)no2)cc1Cl`
Result: Not fulfilled

Task: Dear colleague, could you confirm whether `CC(C)[C@@H]1CC[C@@H](C)C[C@@H]1P(=O)(c1ccccc1)c1ccccc1` has fraction unbound at 5 h at or above 0.02?
Result: Not fulfilled
